Quick reference for Fluorescence intensity (a.u.), Tumor among some molecules
System: subcutaneously implanted H69 human lung cancer
procedure summary: Ex vivo biodistribution by fiber-optic spectrofluorimetry (FOS) in tissues of mice bearing H69 tumors
condition notes: ex vivo, 24 hours after i.v. administration, FOS
Express your answer in a.u., writing the number without its unit.

Known results for molecules:
C[C@@H](O)[C@@H]1NC(=O)[C@H](CCCCN)NC(=O)[C@@H](Cc2c[nH]c3ccccc23)NC(=O)[C@H](Cc2c[nH]c3ccccc23)NC(=O)[C@H](Cc2ccccc2)NC(=O)CN(C(=O)[C@@H](Cc2ccccc2)NC(=O)CCNC(=S)Nc2ccc3c(c2)C(=O)OC32c3ccc(O)cc3Oc3cc(O)ccc32)CCSSCCN(CC(N)=O)C(=O)[C@H](Cc2ccccc2)NC1=O
106
C[C@@H](O)[C@@H]1NC(=O)[C@H](CCCCN)NC(=O)[C@@H](Cc2c[nH]c3ccccc23)NC(=O)[C@H](Cc2c[nH]c3ccccc23)NC(=O)[C@H](Cc2ccccc2)NC(=O)CN(C(=O)[C@@H](Cc2ccccc2)NC(=O)CCCCNC(=S)Nc2ccc3c(c2)C(=O)OC32c3ccc(O)cc3Oc3cc(O)ccc32)CCSSCCN(CC(N)=O)C(=O)[C@H](Cc2ccccc2)NC1=O
122
C[C@@H](O)[C@@H]1NC(=O)[C@H](CCCCN)NC(=O)[C@@H](Cc2c[nH]c3ccccc23)NC(=O)[C@H](Cc2c[nH]c3ccccc23)NC(=O)[C@H](Cc2ccccc2)NC(=O)CN(C(=O)CCCNC(=O)c2ccc3c(c2)C(=O)OC32c3ccc(O)cc3Oc3cc(O)ccc32)CCSSCCN(CC(N)=O)C(=O)[C@H](Cc2ccccc2)NC1=O
50

Kindly review the next molecule as well.
Incoming: API: value(readout=Fluorescence intensity (a.u.), Tumor, system=subcutaneously implanted H69 human lung cancer) for record C[C@@H](O)[C@@H]1NC(=O)[C@H](CCCCN)NC(=O)[C@@H](Cc2c[nH]c3ccccc23)NC(=O)[C@H](Cc2c[nH]c3ccccc23)NC(=O)[C@H](Cc2ccccc2)NC(=O)CN(C(=O)[C@@H](Cc2ccccc2)NC(=O)CCNC(=O)c2ccc3c(c2)C(=O)OC32c3ccc(O)cc3Oc3cc(O)ccc32)CCSSCCN(CC(N)=O)C(=O)[C@H](Cc2ccccc2)NC1=O
Outgoing: 110
